FYI, the data here is from patent US20230399394A1.

# assay.system: T1, Human IL-33-his (human, UniProt O95760 112-270, biotinylated with EZ-Link NHS-Biotin where used as IL-33-his-biotin)
# T1 construct: Used plain (SPR, cell assays) and biotinylated (ELISA); also called IL-33-his-biotin
# T1 sequence: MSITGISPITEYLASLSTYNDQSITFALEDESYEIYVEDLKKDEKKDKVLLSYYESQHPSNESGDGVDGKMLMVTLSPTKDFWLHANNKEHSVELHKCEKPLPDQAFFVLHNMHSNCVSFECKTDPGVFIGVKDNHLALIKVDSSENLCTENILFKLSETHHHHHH
# measurement.notes: ELISA as Example 9, IL-33-his-biotin on streptavidin plate
Recorded measurements of EC50, one per entry
value.type: EC50 (nM)

>>> result_value("874F7-Hu2 (antibody, human IgG4 S228P, kappa, V domains shown, Humanized; also called humanized antibody 874F7-Hu2) VH: QVQLQESGPGLVKPSETLSLTCTVSGFSLSKYGVHWIRQPPGKGLEWLGVLRAGGSTGYNSALMSRLTISKDSSKSQVSLKLSSVTAADTAVYYCVRDHYYYSSYGGFVYWGQGTLVTVSS VL: DIQMTQSPSSVSASVGDRVTITCLASQTIGAWLAWYQQKPGKSPKLLIYAATRLADGVPSRFSGSGSGTDFTLTISSLQPEDFATYYCQQLDSSPYTFGQGTKVEIKR")
0.136
>>> result_value("864F3-Hu5 (antibody, human IgG4 S228P, kappa, V domains shown, Humanized; also called humanized antibody 864F3-Hu5) VH: QVQLQESGPGLVKPSETLSLTCTVSGFSLSKYGVHWIRQPPGKGLEWLGVLRAGGTISYNSALMSRLTISEDISKSQVSLKLSSVTAADTAVYYCARDHYYYSSFGGFASWGQGTLVTVSS VL: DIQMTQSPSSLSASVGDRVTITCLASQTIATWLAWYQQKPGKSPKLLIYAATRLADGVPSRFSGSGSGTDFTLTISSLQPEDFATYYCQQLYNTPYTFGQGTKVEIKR")
0.146
>>> result_value("871G1-Hu2 (antibody, human IgG4 S228P, kappa, V domains shown, Humanized; also called humanized antibody 871G1-Hu2) VH: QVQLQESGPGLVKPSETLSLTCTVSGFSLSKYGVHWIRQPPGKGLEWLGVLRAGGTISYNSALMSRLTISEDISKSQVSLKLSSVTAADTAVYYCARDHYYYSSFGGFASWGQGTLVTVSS VL: DIQMTQSPSSVSASVGDRVTITCLASQTIGAWLAWYQQKPGKSPKLLIYAATRLADGVPSRFSGSGSGTDFTLTISSLQPEDFATYYCQQLNSTPYTFGQGTKVEIKR")
0.176
>>> result_value("864F3-HuG (antibody, human IgG4 S228P, kappa, V domains shown, Humanized; also called humanized antibody 864F3-HuG) VH: QVQLQESGPGLVKPSETLSLTCTVSGFSLTNYGVHWIRQPPGKGLEWIGVIRAGGSSDYNSALMSRVTISVDTSKNQFSLKLSSVTAADTAVYYCARDHYFSNSYGGSPYWGQGTLVTVSS VL: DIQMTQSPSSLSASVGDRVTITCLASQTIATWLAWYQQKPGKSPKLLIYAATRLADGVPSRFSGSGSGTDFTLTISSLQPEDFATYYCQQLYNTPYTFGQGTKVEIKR")
0.76
>>> result_value("864F3-Hu4 (antibody, human IgG4 S228P, kappa, V domains shown, Humanized; also called humanized antibody 864F3-Hu4) VH: QVQLQESGPGLVKPSETLSLTCTVSGFSLSKYGVHWIRQPPGKGLEWIGVLRAGGTISYNSALMSRVTISEDISKSQVSLKLSSVTAADTAVYYCARDHYYYSSFGGFASWGQGTLVTVSS VL: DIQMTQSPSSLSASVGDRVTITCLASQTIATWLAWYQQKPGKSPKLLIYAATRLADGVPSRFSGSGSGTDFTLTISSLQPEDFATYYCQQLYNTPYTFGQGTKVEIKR")
0.135
